- protocol-text: Cell Viability - LYMP2-022 (AID 987);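 also: cells exposed to compound for 24 hr; nearly all actives have a fitted effect of over 55% in size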
- experimental-context: LYMP2-022 lymphoblastoid cell viability; series mostly up to 92.2 µM
Records with an inconclusive call do not appear. The source made the active and inactive calls. Calls follow the shape of the dose curve; as a rule, active = well fitted cell-killing curve with a large enough effect; inconclusive = small, poorly fitted or top-dose-only effect; inactive = flat fitted curve, though single readings scatter.
// one of 1.0 = active, 0.0 = inactive, no free text

A selection of reference data follows.
| compound | label-class |
| --- | --- |
| O=C1C=CC(=O)C=C1 | 1.0 |
| O=C1CCO1 | 0.0 |
| COc1ccc2c(c1OC)C(=O)OC2C1c2cc3c(cc2CCN1C)OCO3 (centres undefined) | 0.0 |
| O=[N+]([O-])c1ccccc1 | 0.0 |

Query string: Please state the recorded outcome for this compound: O=Cc1ccco1
Result string: 0.0

Query string: State the result this test recorded for O=C/C=C/c1ccccc1 .
Result string: 0.0
